Values compiled from patent US7829560B2.

Listed here are compounds together with their documented inhibition at 10 µM.
# measurement-target: p38α (Homo sapiens)
# Construct: p38 MAP Kinases are recombinant human full-length proteins with an amino-terminal GST fusion; GST (N); purchased Upstate Biotechnology Inc; host or cells: E. coli
# Sequence (Q16539 whole entry, the tested form may be a part): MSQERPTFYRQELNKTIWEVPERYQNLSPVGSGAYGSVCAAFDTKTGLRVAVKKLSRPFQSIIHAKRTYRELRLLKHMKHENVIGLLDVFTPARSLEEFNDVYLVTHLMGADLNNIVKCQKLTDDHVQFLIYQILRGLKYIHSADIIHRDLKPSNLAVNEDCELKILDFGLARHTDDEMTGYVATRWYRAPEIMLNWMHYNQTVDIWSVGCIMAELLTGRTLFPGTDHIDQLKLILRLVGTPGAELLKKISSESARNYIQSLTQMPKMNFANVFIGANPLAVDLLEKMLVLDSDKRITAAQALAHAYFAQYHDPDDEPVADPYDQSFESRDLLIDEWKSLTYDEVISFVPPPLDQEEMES
# test-method-notes: p38 MAP Kinase assay: inhibition of ATF2 phosphorylation, ELISA
# Type: biochemical
# condition-details: 10 uM; substrate ATF2; read-out: [ENZ] P38 ALPHA, PCT INH, ELISA (10 uM;ATF2) (Percent)
A number alone suffices; assume %.

[
  {
    "compound": "O=C(Nc1ccc(OCCCN2CCC(O)CC2)c2ccccc12)c1cc(F)cc(N2CCCCC2)c1",
    "unit-string": "%",
    "inhibition at 10 µM": 59.5
  },
  {
    "compound": "O=C(Nc1ccc(OCCN2CCOCC2)c2ccccc12)c1cccc(-c2cc(C(F)(F)F)cc(C(F)(F)F)c2)c1",
    "unit-string": "%",
    "inhibition at 10 µM": 0
  },
  {
    "compound": "O=C(Nc1ccc(OCCN2CCCCC2)c2ccccc12)c1ccnc(N2CCOCC2)c1",
    "unit-string": "%",
    "inhibition at 10 µM": 12.5
  },
  {
    "compound": "O=C(Nc1ccc(OCCN2CCOCC2)c2ccccc12)c1cc(C(F)(F)F)cc(C(F)(F)F)c1",
    "unit-string": "%",
    "inhibition at 10 µM": 18
  },
  {
    "compound": "CC1CCN(c2cc(C(=O)Nc3ccc(OCCN4CCOCC4)c4ccccc34)ccn2)CC1",
    "unit-string": "%",
    "inhibition at 10 µM": 82
  }
]

What value of inhibition at 10 µM on p38α (Homo sapiens) does O=C(Nc1ccc(OCCN2CCC3(CC2)OCCO3)c2ccccc12)c1cc(F)cc(N2CCCCC2)c1 have?
72.5

What value of inhibition at 10 µM on p38α (Homo sapiens) does CN(c1cccc(C(=O)Nc2ccc(OCCN3CCOCC3)c3ccccc23)n1)C1CCCCC1 have?
32

What value of inhibition at 10 µM on p38α (Homo sapiens) does O=C(Nc1ccc(OCCN2CCOCC2)c2ccccc12)c1cccc2c1Cc1ccccc1-2 have?
27
